Hello, the source for this data is patent US10150729B2, in case you need it.

assay: Solid-state photostability study (UV irradiation, HPLC); conditions: UV light, 24 hrs
readout.type: percentage of tranilast remaining (%)
Give the value, in units of %, as a plain number.

What does the record list as percentage of tranilast remaining for COc1ccc(/C=C/C(=O)Nc2ccccc2C(=O)O)cc1OC.O=C(O)c1ccccc1O [1:1 Tranilast Salicyclic Acid Cocrystal] ?
99.6

Record: COc1ccc(/C=C/C(=O)Nc2ccccc2C(=O)O)cc1OC [Crystalline Tranilast, reference compound]
99.8

Follow-up item: COc1ccc(/C=C/C(=O)Nc2ccccc2C(=O)O)cc1OC.Nc1ccc(C(=O)O)cc1
98.2

Thanks! And COc1ccc(/C=C/C(=O)Nc2ccccc2C(=O)O)cc1OC.O=C1NS(=O)(=O)c2ccccc21 [1:1 Tranilast Saccharin Cocrystal] ?
99.6

Let us now turn to COc1ccc(/C=C/C(=O)Nc2ccccc2C(=O)O)cc1OC.NC(N)=O [1:1 Tranilast Urea Cocrystal]
99.6

And for COc1ccc(/C=C/C(=O)Nc2ccccc2C(=O)O)cc1OC.NC(=O)c1cccnc1 [1:1 Tranilast Nicotinamide Cocrystal] ?
99.9

###

Please go through the items and note down their percentage of tranilast remaining.
test: Solid-state photostability study (UV irradiation, HPLC); settings: UV light, 48 hrs
Param answer (str): number followed by unit.

Recorded percentage of tranilast remaining of COc1ccc(/C=C/C(=O)Nc2ccccc2C(=O)O)cc1OC.O=C1NS(=O)(=O)c2ccccc21 [1:1 Tranilast Saccharin Cocrystal] , please.
99.1%

Another compound to check: COc1ccc(/C=C/C(=O)Nc2ccccc2C(=O)O)cc1OC.O=C(O)c1ccccc1O [1:1 Tranilast Salicyclic Acid Cocrystal]
98.7%

// next record COc1ccc(/C=C/C(=O)Nc2ccccc2C(=O)O)cc1OC [Crystalline Tranilast, reference compound]
99.7%

Note, next up: COc1ccc(/C=C/C(=O)Nc2ccccc2C(=O)O)cc1OC.NC(=O)c1cccnc1 [1:1 Tranilast Nicotinamide Cocrystal]
99.9%

Thanks! And COc1ccc(/C=C/C(=O)Nc2ccccc2C(=O)O)cc1OC.NC(N)=O [1:1 Tranilast Urea Cocrystal] ?
99.9%

Then COc1ccc(/C=C/C(=O)Nc2ccccc2C(=O)O)cc1OC.Nc1ccc(C(=O)O)cc1 ?
99.7%

###

assay: Solution photostability study (UV irradiation, HPLC); settings: dissolved in DMSO/MeOH/water; UV light; 24 hrs
Field: percentage of tranilast remaining. Provide a value for each of the molecules that follow.
Please reply with the bare figure in % and do not write the unit itself.

Requested field: percentage of tranilast remaining. Item: COc1ccc(/C=C/C(=O)Nc2ccccc2C(=O)O)cc1OC.NC(=O)c1cccnc1 [1:1 Tranilast Nicotinamide Cocrystal]
80.2

// next record COc1ccc(/C=C/C(=O)Nc2ccccc2C(=O)O)cc1OC.Nc1ccc(C(=O)O)cc1
76.2

What do we get for COc1ccc(/C=C/C(=O)Nc2ccccc2C(=O)O)cc1OC.O=C1NS(=O)(=O)c2ccccc21 ?
71.0

Field entry: COc1ccc(/C=C/C(=O)Nc2ccccc2C(=O)O)cc1OC.O=C(O)c1ccccc1O
77.5

Same lookup for COc1ccc(/C=C/C(=O)Nc2ccccc2C(=O)O)cc1OC.NC(N)=O , please.
76.4

How about COc1ccc(/C=C/C(=O)Nc2ccccc2C(=O)O)cc1OC [Crystalline Tranilast, reference compound] ?
66.2

###

Exercise: for every item that follows, state its recorded percentage of tranilast remaining.
experiment: Solid-state photostability study (UV irradiation, HPLC); settings: UV light, 3 hrs
Please state the figure in %; there is no need to write the unit.

Query (compound): COc1ccc(/C=C/C(=O)Nc2ccccc2C(=O)O)cc1OC [Crystalline Tranilast, reference compound] ; field requested: percentage of tranilast remaining
98.9

Then what about the compound COc1ccc(/C=C/C(=O)Nc2ccccc2C(=O)O)cc1OC.O=C1NS(=O)(=O)c2ccccc21 [1:1 Tranilast Saccharin Cocrystal] ?
99.8

Now give it for COc1ccc(/C=C/C(=O)Nc2ccccc2C(=O)O)cc1OC.O=C(O)c1ccccc1O [1:1 Tranilast Salicyclic Acid Cocrystal] too.
99.8

Then COc1ccc(/C=C/C(=O)Nc2ccccc2C(=O)O)cc1OC.NC(N)=O [1:1 Tranilast Urea Cocrystal] ?
99.8

Input COc1ccc(/C=C/C(=O)Nc2ccccc2C(=O)O)cc1OC.Nc1ccc(C(=O)O)cc1
99.8

Try COc1ccc(/C=C/C(=O)Nc2ccccc2C(=O)O)cc1OC.NC(=O)c1cccnc1 [1:1 Tranilast Nicotinamide Cocrystal] next.
99.3
